TESTED_TARGET: T1, cynomolgus monkey CD40-his protein (Acro biosystems, Cat. No. CD0-C52H6) (cynomolgus monkey, UniProt G7PG38 21-193)
T1 construct: Bought protein; not shown: His tag
ASSAY_COMMENT: SPR (Biacore T200), antibody captured on anti-human IgG chip, CD40-his as analyte, 1:1 fit
RESULT_TYPE: koff (s⁻¹)
Just the number please, in s⁻¹, no unit attached.

Item humanized antibody huC1H1-V1 (antibody, human IgG2, kappa, V domains shown, Human IgG2 / kappa) VH: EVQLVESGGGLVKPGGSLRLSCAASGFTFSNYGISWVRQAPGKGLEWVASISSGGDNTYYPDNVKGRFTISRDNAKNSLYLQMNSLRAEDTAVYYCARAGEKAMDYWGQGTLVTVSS VL: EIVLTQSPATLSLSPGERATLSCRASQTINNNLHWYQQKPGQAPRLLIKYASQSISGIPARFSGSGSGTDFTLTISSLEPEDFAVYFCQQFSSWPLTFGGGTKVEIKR has what recorded koff?
0.00237

Item humanized antibody huC1H1-V2 (antibody, human IgG2, kappa, V domains shown, Human IgG2 / kappa) VH: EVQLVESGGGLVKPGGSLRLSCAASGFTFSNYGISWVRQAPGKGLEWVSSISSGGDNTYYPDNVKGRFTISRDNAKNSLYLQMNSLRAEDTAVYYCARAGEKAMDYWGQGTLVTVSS VL: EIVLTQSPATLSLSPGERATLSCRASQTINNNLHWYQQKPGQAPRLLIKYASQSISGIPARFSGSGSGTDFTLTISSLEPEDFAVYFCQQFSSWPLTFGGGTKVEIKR has what recorded koff?
0.00274

Item chimeric antibody C1H1 (antibody, human IgG1, kappa, V domains shown, also called Chimeric C1H1) VH: EVKLVESGGGLVKPGASLKLSCAASGFTFSNYGISWVRQTSDKRLEWVASISSGGDNTYYPDNVKGRFTISRENAKNTLYLQMSSLKSEDTALYYCARAGEKAMDYWGQGTSVTVSS VL: DIVLTQSPVTLSVTPGDSVSLSCRASQTINNNLHWYQQKSHESPRLLIKYASQSISGIPSRFSGSGSGTDFTLSINSVETEDFGIYFCQQFSSWPLTFGAGTKLELKR has what recorded koff?
0.00215

Item BM1 (dacetuzumab) (antibody, human IgG1, kappa, V domains shown, Benchmark antibody, prepared in-house; also called CD40-BM1; benchmark) VH: EVQLVESGGGLVQPGGSLRLSCAASGYSFTGYYIHWVRQAPGKGLEWVARVIPNAGGTSYNQKFKGRFTLSVDNSKNTAYLQMNSLRAEDTAVYYCAREGIYWWGQGTLVTVSS VL: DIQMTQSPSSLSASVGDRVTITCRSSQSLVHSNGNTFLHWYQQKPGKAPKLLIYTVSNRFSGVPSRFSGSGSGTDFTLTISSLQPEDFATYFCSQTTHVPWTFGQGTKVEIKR has what recorded koff?
0.0074
